Would you kindly list Cell viability in kinase inhibitor library screening, A375 Parental, 10μΜ for each of these compounds?
test system: A375 cells (parental); test: Kinase inhibitor library screening, PrestoBlue cell viability, 1 or 10 μM, 72 h; details: A375 Parental, 10μΜ, 72 h
Give a plain numeric answer without units written out.

IN: Answer with reported Cell viability in kinase inhibitor library screening, A375 Parental, 10μΜ of COC(=O)Nc1ccc(-c2nc(N3CCOCC3)c3cnn(C4CCN(C(=O)OC)CC4)c3n2)cc1 [WYE-354]
OUT: 24.6

IN: Answer with reported Cell viability in kinase inhibitor library screening, A375 Parental, 10μΜ of Nc1nc(N)c2nc(-c3cccc(O)c3)c(-c3cccc(O)c3)nc2n1 [TG100-115]
OUT: 88.3

IN: Answer with reported Cell viability in kinase inhibitor library screening, A375 Parental, 10μΜ of CN(C)C1CCN(C(=O)c2ccc(NC(=O)Nc3ccc(-c4nc(N5CCOCC5)nc(N5CCOCC5)n4)cc3)cc2)CC1 [PF-05212384 (PKI-587)]
OUT: 13.9

IN: Answer with reported Cell viability in kinase inhibitor library screening, A375 Parental, 10μΜ of O=C1NC(=O)C(=Cc2ccc(-c3ccc(F)cc3)o2)S1 (stereo in doubt) [CAY10505]
OUT: 93.9

IN: Answer with reported Cell viability in kinase inhibitor library screening, A375 Parental, 10μΜ of NCC(=O)Nc1ccc(-n2nc(C(F)(F)F)cc2-c2ccc3c(ccc4ccccc43)c2)cc1 [OSU-03012]
OUT: 0.756

IN: Answer with reported Cell viability in kinase inhibitor library screening, A375 Parental, 10μΜ of COc1ccc(-c2ccc3c(N4CCOC[C@@H]4C)nc(N4CCOC[C@@H]4C)nc3n2)cc1CO [AZD8055]
OUT: 19.2

IN: Answer with reported Cell viability in kinase inhibitor library screening, A375 Parental, 10μΜ of CCC(=O)N1CCN(c2ccc(-n3c(=O)ccc4cnc5ccc(-c6cnc7ccccc7c6)cc5c43)cc2C(F)(F)F)CC1 [Torin 1]
OUT: 7.2

====

test system: 501Mel-XP cells (Vemurafenib-resistant); assay: Kinase inhibitor library screening, PrestoBlue cell viability, 1 or 10 μM, 72 h; settings: 501Mel XP; 1μΜ; 72 h; in %
Would you kindly list cell viability, 501Mel XP, 1μΜ for each of these compounds?
Give a plain numeric answer without units written out.

IN: With 501Mel-XP cells (Vemurafenib-resistant) as the test system, provide measured cell viability, 501Mel XP, 1μΜ for this compound: CS(=O)(=O)CCNCc1ccc(-c2ccc3ncnc(Nc4ccc(OCc5cccc(F)c5)c(Cl)c4)c3c2)o1.Cc1ccc(S(=O)(=O)O)cc1.Cc1ccc(S(=O)(=O)O)cc1 [Lapatinib Ditosylate (Tykerb)]
OUT: 94.1

IN: With 501Mel-XP cells (Vemurafenib-resistant) as the test system, provide measured cell viability, 501Mel XP, 1μΜ for this compound: COc1cc2ncnc(Nc3cccc(Cl)c3)c2cc1OC [AG-1478 (Tyrphostin AG-1478)]
OUT: 86.2

IN: With 501Mel-XP cells (Vemurafenib-resistant) as the test system, provide measured cell viability, 501Mel XP, 1μΜ for this compound: CN1CCN(c2ccc3nc(-c4c(N)c5c(F)cccc5[nH]c4=O)[nH]c3c2)CC1 [Dovitinib (TKI-258)]
OUT: 87.1

IN: With 501Mel-XP cells (Vemurafenib-resistant) as the test system, provide measured cell viability, 501Mel XP, 1μΜ for this compound: C=CC(=O)Nc1cccc(Sc2nc(Nc3ccc(N4CCN(C)CC4)cc3)ncc2Cl)c1 [WZ8040]
OUT: 96.4

IN: With 501Mel-XP cells (Vemurafenib-resistant) as the test system, provide measured cell viability, 501Mel XP, 1μΜ for this compound: CCN1CCN(Cc2ccc(-c3cc4c(N[C@H](C)c5ccccc5)ncnc4[nH]3)cc2)CC1 [AEE788 (NVP-AEE788)]
OUT: 105.3

IN: With 501Mel-XP cells (Vemurafenib-resistant) as the test system, provide measured cell viability, 501Mel XP, 1μΜ for this compound: O=C1NC(=O)C(c2ccccc2[N+](=O)[O-])=C1Nc1ccc(O)c(Cl)c1 [SB 415286]
OUT: 92.5

====

tested on: 501Mel cells (parental); assay: Kinase inhibitor library screening, PrestoBlue cell viability, 1 or 10 μM, 72 h; conditions: Homo sapiens, 72 h, read-out: cell viability, 501Mel Parental, 1μΜ
endpoint_label: viability at 1 µM (%)
Number in %, nothing else.

IN: Answer with reported viability at 1 µM of Cn1cnc2c(F)c(Nc3ccc(Br)cc3Cl)c(C(=O)NOCCO)cc21 [AZD6244 (Selumetinib)]
OUT: 61.6

IN: Answer with reported viability at 1 µM of N#CCNC(=O)c1ccc(-c2ccnc(Nc3ccc(N4CCOCC4)cc3)n2)cc1 [Cyt387]
OUT: 101

IN: Answer with reported viability at 1 µM of CC(C)(O)CC(=O)NCCn1ccc2ncnc(Nc3ccc(Oc4cccc(C(F)(F)F)c4)c(Cl)c3)c21 [TAK-285]
OUT: 101

IN: Answer with reported viability at 1 µM of O=C(NOC[C@H](O)CO)c1ccc(F)c(F)c1Nc1ccc(I)cc1F [PD0325901]
OUT: 56.4

====

system: 501Mel cells (parental); assay: Kinase inhibitor library screening, PrestoBlue cell viability, 1 or 10 μM, 72 h; conditions: 501Mel Parental, 1μΜ, 72 h
endpoint_label: cell viability (kinase inhibitor library screening) (%)
Number in %, nothing else.

IN: Answer with reported cell viability (kinase inhibitor library screening) of CCS(=O)(=O)c1cccc(-c2cc(C(=O)NC3CCN(C)CC3)c(C)c3[nH]c4ncc(C)cc4c23)c1 [TAK-901, reference compound]
OUT: 82.7

IN: Answer with reported cell viability (kinase inhibitor library screening) of Clc1ccc(C2(c3ccc(-c4cn[nH]c4)cc3)CCNCC2)cc1
OUT: 93.0

IN: Answer with reported cell viability (kinase inhibitor library screening) of CO[C@@H](C(=O)N1Cc2n[nH]c(NC(=O)c3ccc(N4CCN(C)CC4)cc3)c2C1)c1ccccc1
OUT: 94.3

IN: Answer with reported cell viability (kinase inhibitor library screening) of Cn1cc(-c2ccc3nnc(C(F)(F)c4ccc5ncccc5c4)n3n2)cn1
OUT: 97.8

IN: Answer with reported cell viability (kinase inhibitor library screening) of CC(=O)NCC(=O)N1[C@@H]2CC[C@H]1c1ccc(Nc3ncc(C(F)(F)F)c(NC4CCC4)n3)cc12
OUT: 82.8

IN: Answer with reported cell viability (kinase inhibitor library screening) of CCS(=O)(=O)Nc1ccc2c(c1)/C(=C(/Nc1ccc(CN3CCCCC3)cc1)c1ccccc1)C(=O)N2 [Hesperadin, reference compound]
OUT: 45.1

IN: Answer with reported cell viability (kinase inhibitor library screening) of CNC(=O)c1cc(Oc2ccc(NC(=O)Nc3cc(C(C)(C)C)nn3-c3ccc4ncccc4c3)c(F)c2)ccn1 [DCC-2036 (Rebastinib)]
OUT: 81.5

IN: Answer with reported cell viability (kinase inhibitor library screening) of O=C(Nc1cccc(Cl)c1)Nc1ncc(CCNc2ncnc3ccsc23)s1
OUT: 79.7

IN: Answer with reported cell viability (kinase inhibitor library screening) of CC(=O)c1c(C)c2cnc(Nc3ccc(N4CCNCC4)cn3)nc2n(C2CCCC2)c1=O.Cl [PD 0332991 (Palbociclib) HCl]
OUT: 89.7

IN: Answer with reported cell viability (kinase inhibitor library screening) of Cc1[nH]c(/C=C2\C(=O)Nc3ccc(S(=O)(=O)Cc4c(Cl)cccc4Cl)cc32)c(C)c1C(=O)N1CCC[C@@H]1CN1CCCC1
OUT: 100.2

IN: Answer with reported cell viability (kinase inhibitor library screening) of CCc1cnn2c(NCc3ccc[n+]([O-])c3)cc(N3CCCC[C@H]3CCO)nc12 [Dinaciclib (SCH727965)]
OUT: 1.5

IN: Answer with reported cell viability (kinase inhibitor library screening) of O=C1NC(=O)[C@@H](c2cn3c4c(cccc24)CCC3)[C@@H]1c1c[nH]c2ccccc12 [ARQ 197 (Tivantinib)]
OUT: 52.2

IN: Answer with reported cell viability (kinase inhibitor library screening) of COc1cc2c(Nc3ccc(NC(=O)c4ccccc4)cc3)ncnc2cc1OCCCN1CCOCC1
OUT: 90.8

IN: Answer with reported cell viability (kinase inhibitor library screening) of C[C@@H](Oc1cc(-c2cnn(C3CCNCC3)c2)cnc1N)c1c(Cl)ccc(F)c1Cl
OUT: 97.3

IN: Answer with reported cell viability (kinase inhibitor library screening) of CCn1c(-c2nonc2N)nc2c(C#CC(C)(C)O)ncc(OC[C@H]3CCCNC3)c21
OUT: 87.0

====

system: IGR37 cells (parental); assay: Kinase inhibitor library screening, PrestoBlue cell viability, 1 or 10 μM, 72 h; conditions: IGR37 Parental; 10μΜ; 72 h; in %
I'd appreciate it if you marked entries T when Cell viability in kinase inhibitor library screening, IGR37 Parental, 10μΜ is lower than 30 and F when it is not.

IN: Field: below-cutoff. Rule: recorded Cell viability in kinase inhibitor library screening, IGR37 Parental, 10μΜ strictly less than 30. Subject: FC(F)c1nc2ccccc2n1-c1nc(N2CCOCC2)nc(N2CCOCC2)n1
OUT: T

IN: Field: below-cutoff. Rule: recorded Cell viability in kinase inhibitor library screening, IGR37 Parental, 10μΜ strictly less than 30. Subject: COc1ccc(-c2ccc3c(N4CCOC[C@@H]4C)nc(N4CCOC[C@@H]4C)nc3n2)cc1CO
OUT: T

IN: Field: below-cutoff. Rule: recorded Cell viability in kinase inhibitor library screening, IGR37 Parental, 10μΜ strictly less than 30. Subject: CCn1nnc2c(N3CCOCC3)nc(-c3ccc(NC(=O)Nc4ccc(C(=O)N5CCN(C)CC5)cc4)cc3)nc21
OUT: T

IN: Field: below-cutoff. Rule: recorded Cell viability in kinase inhibitor library screening, IGR37 Parental, 10μΜ strictly less than 30. Subject: O=C1NC(=O)/C(=C/c2ccc3c(c2)OC(F)(F)O3)S1
OUT: F

IN: Field: below-cutoff. Rule: recorded Cell viability in kinase inhibitor library screening, IGR37 Parental, 10μΜ strictly less than 30. Subject: NCC(=O)Nc1ccc(-n2nc(C(F)(F)F)cc2-c2ccc3c(ccc4ccccc43)c2)cc1
OUT: T

IN: Field: below-cutoff. Rule: recorded Cell viability in kinase inhibitor library screening, IGR37 Parental, 10μΜ strictly less than 30. Subject: NC(=O)c1ccc(N(C(N)=O)c2c(F)cccc2F)nc1-c1ccc(F)cc1F
OUT: F

IN: Field: below-cutoff. Rule: recorded Cell viability in kinase inhibitor library screening, IGR37 Parental, 10μΜ strictly less than 30. Subject: Nc1ccc(C(=O)Nc2cccc(-c3nc(N4CCOCC4)c4oc5ncccc5c4n3)c2)cn1
OUT: F

IN: Field: below-cutoff. Rule: recorded Cell viability in kinase inhibitor library screening, IGR37 Parental, 10μΜ strictly less than 30. Subject: CCCS(=O)(=O)Nc1ccc(F)c(C(=O)c2c[nH]c3ncc(-c4ccc(Cl)cc4)cc23)c1F
OUT: F

IN: Field: below-cutoff. Rule: recorded Cell viability in kinase inhibitor library screening, IGR37 Parental, 10μΜ strictly less than 30. Subject: CCn1c(=O)c(-c2cc[nH]n2)cc2c(C)nc(N)nc21
OUT: F

IN: Field: below-cutoff. Rule: recorded Cell viability in kinase inhibitor library screening, IGR37 Parental, 10μΜ strictly less than 30. Subject: COc1ccc(-c2ccc3c(N4CCOCC4)nc(N4C[C@@H](C)O[C@@H](C)C4)nc3n2)cc1CO
OUT: T

IN: Field: below-cutoff. Rule: recorded Cell viability in kinase inhibitor library screening, IGR37 Parental, 10μΜ strictly less than 30. Subject: O=C(NCCCNc1nc(Nc2cccc(NC(=O)N3CCCC3)c2)ncc1I)c1cccs1
OUT: F

IN: Field: below-cutoff. Rule: recorded Cell viability in kinase inhibitor library screening, IGR37 Parental, 10μΜ strictly less than 30. Subject: COC(=O)Nc1ccc(-c2nc(N3CCOCC3)c3cnn(C4CCN(C(=O)OC)CC4)c3n2)cc1
OUT: T

IN: Field: below-cutoff. Rule: recorded Cell viability in kinase inhibitor library screening, IGR37 Parental, 10μΜ strictly less than 30. Subject: COc1ccc(-c2cc3c(C)nc(N)nc3n([C@H]3CC[C@H](OCCO)CC3)c2=O)cn1 [PF-04691502, reference compound]
OUT: T

IN: Field: below-cutoff. Rule: recorded Cell viability in kinase inhibitor library screening, IGR37 Parental, 10μΜ strictly less than 30. Subject: CC(C)(C)Cn1c(N)nc2ccc(-c3[nH]c(C(C)(C)C)nc3-c3ccc(F)cc3)nc21
OUT: F
